assay: Pharmacokinetics of JHG components in control rats after intragastric administration of JHGs (plasma, Orbitrap Fusion MS); assay type: in vivo, Sprague Dawley (SD) rats; conditions: male, Sprague Dawley, rat, plasma, po, 5.7 g/kg/day, JHGs low dose 5.70 g/kg/d, read-out: MRT(0-t)
measurementKind: MRT last (h)

Exercise: State the recorded MRT last for this entry: CC1CCC2N(C1)CC1C3CC4C(CC(=O)C5CC(O)CCC54C)C3CCC1C2(C)O (centres unmarked) [Peiminine]
Solution: 8.01

Exercise: What does the data say about its MRT last? Entry: CC1=C2CC3C(CC(=O)C4CC(O)CCC43C)C2CCC12OC1CC(C)CNC1C2C (centres unmarked) [Peimisine]
Solution: 9.16

Exercise: // returns reported MRT last for input O=c1cc(-c2ccc(O)c(O)c2)oc2cc(O[C@@H]3O[C@H](CO)[C@@H](O)[C@H](O)[C@H]3O)cc(O)c12 [Cynaroside]
Solution: 7.83

Exercise: Fill in the blank: the reported MRT last of COc1ccc(C(C)=O)c(O)c1 [Paeonol] is ____.
Solution: 7.84

Exercise: May I ask what MRT last has been recorded for COc1cc(O)c2c(c1)oc(=O)c1c3cc(O)c(O)cc3oc21 [Wedelolactone] ?
Solution: 7.52
